pIC50: −log10 of the molar value.
Compiled notes: published pIC50 values involving Vascular endothelial growth factor receptor 3 (Homo sapiens).

Compound string	pIC50
O=C(c1ccccc1F)c1c[nH]c2nccc(-c3cc(F)cc(F)c3)c12	≥ 5.00
Nc1cccc(-c2cnc3[nH]cc(C(=O)c4cccc(Cl)c4Cl)c3c2)c1	≥ 5.00
C=CNC(=O)Nc1ccc(Oc2ncnc3cc(OC)c(OC)cc23)cc1	7.19
O=C(c1cccc(O)c1)c1c[nH]c2nccc(-c3cc(F)cc(F)c3)c12	≥ 5.00
O=C(c1cccc(F)c1)c1c[nH]c2nccc(-c3cc(F)cc(F)c3)c12	≥ 5.00
Cc1cc(C(=O)c2c[nH]c3ncc(-c4cccc(C(N)=O)c4)cc23)nn1C	≥ 5.00
COc1cc(O)cc(Cc2c[nH]c3ncc(-c4ccsc4)cc23)c1	≥ 5.00
CC(C)(C)c1cc(NC(=O)Nc2ccc(Oc3ncnc4[nH]ncc34)c(F)c2)no1	> 5.00

----------
Across several studies, compounds have been characterized by their pIC50 on Vascular endothelial growth factor receptor 3 (Homo sapiens); a selection follows.
pIC50: −log10 of the molar value.

Compound string	pIC50
COc1ccc(F)c(C(=O)c2c[nH]c3ncc(-c4cccc(NC(C)=O)c4)cc23)c1	≥ 5.00
COc1cc2ncnc3c2cc1OCCCCCN(C)Cc1ccc(Br)cc1N3	7.74
Cc1ccccc1C(=O)c1c[nH]c2ncc(-c3cccc(N)c3)cc12	≥ 5.00
CC(C)(O)Cc1cn2cc(Nc3ncc(Cl)c(NC4CCN(c5ccc(C#N)cn5)CC4)n3)ccc2n1	7.06
CC(C)(O)Cc1nc2cc(Nc3ncc(Cl)c(NC4CCN(c5ccc(C#N)nn5)CC4)n3)ccn2n1	6.78
COc1ccc(F)c(C(=O)c2c[nH]c3ncc(-c4cccnc4)cc23)c1	≥ 5.00
O=C(c1ccc(F)cc1F)c1c[nH]c2nccc(-c3cc(F)cc(F)c3)c12	≥ 5.00
COc1cccc(C(=O)c2c[nH]c3ncc(-c4cccnc4)cc23)c1	≥ 5.00

----------
pIC50: −log10 of the molar value.
Before we begin, note that these pIC50 values for Vascular endothelial growth factor receptor 3 (Homo sapiens, UniProt P35916) originate from several publications.
Measure name: pIC50

Compound string	Measure name	Measured result
O=C(c1ccccc1)c1c[nH]c2nccc(-c3cc(F)cc(F)c3)c12	pIC50	≥ 5.00
NC(=O)c1ccc(-c2cnc3[nH]cc(C(=O)c4cccc(O)c4)c3c2)cc1	pIC50	≥ 5.00
Cc1cc(C(=O)c2c[nH]c3ncc(-c4cccc(C(N)=O)c4)cc23)n(C)n1	pIC50	≥ 5.00
CC(C)(O)Cc1nnc2cc(Nc3ncc(Cl)c(NC4CCN(c5ccc(C#N)cn5)CC4)n3)ccn12	pIC50	7.24
COc1cc2ncnc(Oc3ccc(NC(=O)NC4CCCC4)cc3)c2cc1OC	pIC50	8.05
COc1cc2nccc(Oc3c(F)cc(NC(=O)NC4CC4)c(Cl)c3F)c2cc1C(=O)NC[C@@H](O)CO	pIC50	> 8.30
O=C(c1cccc(O)c1)c1c[nH]c2ncc(-c3ccsc3)cc12	pIC50	≥ 5.00
Nc1cccc(-c2cnc3[nH]cc(C(=O)c4ccc5nsnc5c4)c3c2)c1	pIC50	≥ 5.00
COc1cccc(C(=O)c2c[nH]c3ncc(-c4cccs4)cc23)c1F	pIC50	≥ 5.00
CC(=O)Nc1cccc(-c2cnc3[nH]cc(C(=O)c4ccccc4F)c3c2)c1	pIC50	≥ 5.00
Nc1cccc(-c2cnc3[nH]cc(C(=O)c4ccccc4F)c3c2)c1	pIC50	≥ 5.00
CC(C)(O)Cc1nc2cc(Nc3ncc(Cl)c(NC4CCN(c5ccc(C#N)cn5)CC4)n3)ccn2n1	pIC50	6.93
Nc1cccc(-c2cnc3[nH]cc(C(=O)c4ccc(Cl)cc4)c3c2)c1	pIC50	≥ 5.00
